Assay Target: human PAD4 (hPAD4) (Homo sapiens, UniProt Q9UM07)
Sequence (Q9UM07 whole entry): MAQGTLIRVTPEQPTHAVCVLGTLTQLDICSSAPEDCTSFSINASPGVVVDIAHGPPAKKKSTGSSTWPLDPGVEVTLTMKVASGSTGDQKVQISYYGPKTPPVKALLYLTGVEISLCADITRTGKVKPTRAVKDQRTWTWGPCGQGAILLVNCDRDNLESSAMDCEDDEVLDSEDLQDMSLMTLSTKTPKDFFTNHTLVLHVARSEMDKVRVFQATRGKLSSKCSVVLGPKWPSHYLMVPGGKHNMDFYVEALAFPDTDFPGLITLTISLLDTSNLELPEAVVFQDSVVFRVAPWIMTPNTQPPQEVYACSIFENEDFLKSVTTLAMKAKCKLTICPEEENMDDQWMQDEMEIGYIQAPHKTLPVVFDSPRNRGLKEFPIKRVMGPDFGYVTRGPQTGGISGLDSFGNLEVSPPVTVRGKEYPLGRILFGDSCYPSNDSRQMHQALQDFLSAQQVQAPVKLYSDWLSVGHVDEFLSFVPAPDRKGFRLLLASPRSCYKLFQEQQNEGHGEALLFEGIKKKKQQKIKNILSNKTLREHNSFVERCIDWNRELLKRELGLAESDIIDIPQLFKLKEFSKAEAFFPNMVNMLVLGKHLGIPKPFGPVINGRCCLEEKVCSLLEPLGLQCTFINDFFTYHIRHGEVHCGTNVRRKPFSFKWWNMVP
Assay Remarks: RFMS Human PAD4 Functional Assay
Type: biochemical
Reported Conditions: hPAD4 RFMS IC50, human PAD4, rapid-fire mass spectrum (RFMS) assay; 5 nM hPAD4, 250 μM BAEE
pIC50: −log10 of the molar value.
Measure Name: pIC50

## Task What pIC50 value was documented for this compound, COc1cc(C(=O)N2C[C@H]3CC[C@@H]2[C@@H]3N)cc2nc(-c3cc4cccc(-c5ccc(C(N)=O)c(Cl)c5)c4n3CC3CC3)n(C)c12 ?
## Result 7.03

## Task Ok, now COc1cc(C(=O)N2C[C@H]3CC[C@@H]2[C@@H]3N)cc2nc(-c3cc4cccc(CCN5CCOC5=O)c4n3CC3CC3)n(C)c12
## Result 6.92

A: COc1cc(C(=O)N2C[C@H]3CC[C@@H]2[C@@H]3N)cc2nc(-c3cc4cccc(C5CN(C(=O)Cc6nnn[nH]6)C5)c4n3CC3CC3)n(C)c12
B: CCOC(=O)c1ccc(Nc2cccc3cc(-c4nc5cc(C(=O)N6CC7CCC6[C@@H]7N)cc(OC)c5n4C)n(CC4CC4)c23)cc1 (stereo partly drawn)
C: COc1cc(C(=O)N2C[C@H]3CC[C@@H]2[C@@H]3N)cc2nc(-c3cc4cccc(-c5cnc(C#N)nc5)c4n3CC3CC3(F)F)n(C)c12 (stereo partly drawn)
D: COc1cc(C(=O)N2C[C@H]3CC[C@@H]2[C@@H]3N)cc2nc(-c3cc4cccc(C5CCC(O)CC5)c4n3CC3CC3)n(C)c12 (stereo partly drawn)
## Task Arrange these compounds by their pIC50, starting with the largest number. # the answer lists labels in the order requested
## Result A, D, B, C
(A: 7.80, D: 7.21, B: 7.01, C: 6.77)

====

Assay Target: human PAD4 (hPAD4) (Homo sapiens, UniProt Q9UM07)
Assay Remarks: RFMS Human PAD4 Functional Assay
Assay type: biochemical
Reported Conditions: hPAD4 RFMS IC50, human PAD4, rapid-fire mass spectrum (RFMS) assay; 5 nM hPAD4, 250 μM BAEE
Measure Name: IC50 (µM)

Past entries and their recorded results:
## Task Param item = COc1cc(C(=O)N2C[C@H]3CC[C@@H]2[C@@H]3N)cc2nc(-c3cc4cccc(OC)c4n3CC3CC3)n(C)c12 ; retrieve measured IC50.
## Result 0.061

## Task For COc1cc(C(=O)N2C[C@H]3CC[C@@H]2[C@@H]3N)cc2nc(-c3cc4cccc(C5CCN(C(=O)Nc6cccc(F)c6)CC5)c4n3CC3CC3)n(C)c12 then?
## Result 0.03

## Task Lookup COc1cc(C(=O)N2C[C@H]3CC[C@@H]2[C@@H]3N)cc2nc(-c3cc4cccc(Nc5cnn(C)c5)c4n3CC3CC3)n(C)c12
## Result 0.096

## Task Another: COc1cc(C(=O)N2C[C@H]3CC[C@@H]2[C@@H]3N)cc2nc(-c3cc4cccc(C5CCCN(C(C)=O)C5)c4n3CC3CC3)n(C)c12 (some centres unmarked)
## Result 0.073

## Task Next record, please: COc1cc(C(=O)N2CC3CCC2C3N)cc2nc(-c3cc4cccc(NCC5CNC5)c4n3CC3CC3)n(C)c12 (centres unmarked)
## Result 0.15

A: COc1cc(C(=O)N2CC3CCC2[C@@H]3N)cc2nc(-c3cc4cccc(Nc5ccnc(C(N)=O)n5)c4n3CC3CC3)n(C)c12 (some centres unmarked)
B: COc1cc(C(=O)N2CC3CCC2[C@@H]3N)cc2nc(-c3cc4cccc(-c5ccco5)c4n3CC3CC3)n(C)c12 (some centres unmarked)
## Task Identify the entry with the smaller IC50: A or B . Label of pick, please.
## Result A

1: COc1cc(C(=O)N2C[C@H]3CC[C@@H]2[C@@H]3N)cc2nc(-c3cc4cccc(C5CN(C(=O)CCC(=O)O)C5)c4n3CC3CC3)n(C)c12
2: COc1cc(C(=O)N2C[C@H]3CC[C@@H]2[C@@H]3N)cc2nc(-c3cc4cccc(C[C@H]5CC[C@H](N)CC5)c4n3CC3CC3)n(C)c12
3: C=CC(=O)Nc1cccc(-c2cccc3cc(-c4nc5cc(C(=O)N6C[C@H]7CC[C@@H]6[C@@H]7N)cc(OC)c5n4C)n(CC4CC4)c23)c1
## Task Parameters: sort_field (IC50), sort_dir (desc). As an answer, provide the labels arranged in the order called for.
## Result 1, 3, 2
(1: 0.17 µM, 3: 0.056 µM, 2: 0.038 µM)

I: COc1cc(C(=O)N2C[C@H]3CC[C@@H]2[C@@H]3N)cc2nc(-c3cc4cccc(C5CC(C(N)=O)C5)c4n3CC3CC3)n(C)c12 (single isomer, unassigned) [Example 45]
II: COc1cc(C(=O)N2C[C@H]3CC[C@@H]2[C@@H]3N)cc2nc(-c3cc4cccc(-c5cn[nH]c5)c4n3CC3CC3(F)F)n(C)c12 (some centres unmarked)
## Task When their IC50 values are compared, which is larger, I or II ? Give the chosen item's label as your response.
## Result II

Data origin: patent US20220402950A1
